All values here come from paper PMC6736568.

Tested on: Cryptosporidium parvum
protocol-text: qRT-PCR assay of the growth of C. parvum in vitro in HCT-8 host cells (primary and secondary screening, EC50)
Format: cell-based
assay-context: primary screening at 10 uM
Task for the reader: assign each of the following molecules its reported Inhibition (%).

1. Cc1c[nH]c2ccccc12 ... 25.24%

Dear colleague, could you send me Inhibition (%) for each of the items below? Thanks.
1. COC(=O)[C@H]1[C@H]2C[C@H]3c4[nH]c5ccccc5c4CCN3C[C@@H]2CC[C@@H]1O
2. CC(=O)OC/C=C(\C)CC/C=C(\C)CC/C=C(\C)CC/C=C(\C)CC/C=C(\C)CC/C=C(\C)CC/C=C(\C)CC/C=C(\C)CCC=C(C)C [SOLANESYL ACETATE]

["-58.95%", "15.24%"]

Dear colleague, could you send me Inhibition (%) for each of the items below? Thanks.
1. COc1ccc2c(c1OC)C(=O)O[C@@H]2[C@H]1c2cc3c(cc2CCN1C)OCO3 [HYDRASTINE (1R, 9S)]
2. CN(C)CC(=O)OC[C@@H](O)[C@@H](O)[C@H](O)[C@@H](O)C(=O)[O-].[Na+] [PANGAMIC ACID SODIUM]
3. CC1=CC2C(C(C)C)CCC(C)(O)C2CC1 (centres unmarked)

1. -23.62%
2. -4.04%
3. -28.21%
